# Test system: A549 cells
# ASSAY_COMMENT: Annexin V-FITC/propidium iodide flow cytometry on A549
# Assay type: cell-based, human
# TEST_SETTINGS: A549 cell line, IC50 concentration, 24 h
EXPERIMENTAL_READOUT: % Viable
Units required after the number.

Recorded results for 3 compounds are shown here.
[[record]]
molecule = "O=C(COc1ccc2c(c1)CCCC2)N/N=c1\\scc(-c2ccc(F)cc2)n1-c1ccccc1"
result = "45.9%"

[[record]]
molecule = "O=C(COc1ccc2c(c1)CCCC2)NN=c1scc(-c2ccccc2)n1C1CCCCC1"
result = "31.5%"

[[record]]
molecule = "COc1ccc(-c2csc(=NNC(=O)COc3ccc4c(c3)CCCC4)n2C2CCCCC2)cc1"
result = "10.9%"


Query: Please supply the value of reported % Viable for the item "O=C(COc1ccc2c(c1)CCCC2)NN=c1scc(-c2ccc([N+](=O)[O-])cc2)n1-c1ccccc1"
Reply: 47.0%

Query: For the compound "O=C(COc1ccc2c(c1)CCCC2)NN=c1scc(-c2ccc(Br)cc2)n1-c1ccccc1" , give its reported % Viable.
Reply: 47.7%

Query: Tell me its % Viable given "O=C(COc1ccc2c(c1)CCCC2)NN=c1scc(-c2ccc(Cl)cc2)n1-c1ccccc1" as the entry.
Reply: 49.4%

----------
# STUDY_SYSTEM: UniProtKB P22303
# Sequence (P22303 32-614, species assumed): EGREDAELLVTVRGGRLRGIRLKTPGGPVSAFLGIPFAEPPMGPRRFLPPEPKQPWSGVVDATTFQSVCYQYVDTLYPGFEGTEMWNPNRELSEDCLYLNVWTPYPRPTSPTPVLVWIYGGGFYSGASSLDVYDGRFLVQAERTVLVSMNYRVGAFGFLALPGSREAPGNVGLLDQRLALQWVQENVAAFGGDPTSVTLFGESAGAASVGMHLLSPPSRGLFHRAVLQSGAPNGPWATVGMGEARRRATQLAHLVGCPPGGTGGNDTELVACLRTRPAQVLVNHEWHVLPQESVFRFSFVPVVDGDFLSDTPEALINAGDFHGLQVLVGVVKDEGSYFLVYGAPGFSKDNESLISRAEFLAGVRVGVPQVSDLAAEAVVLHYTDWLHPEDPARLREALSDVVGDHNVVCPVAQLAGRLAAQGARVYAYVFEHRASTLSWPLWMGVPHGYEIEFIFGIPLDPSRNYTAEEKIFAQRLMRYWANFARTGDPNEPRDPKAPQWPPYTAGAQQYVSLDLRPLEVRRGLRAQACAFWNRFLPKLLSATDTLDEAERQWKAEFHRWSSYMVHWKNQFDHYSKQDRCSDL
# ASSAY_COMMENT: biochemical
# TEST_SETTINGS: 80 µg/mL (~160 µM)
Listing: inhibition at 160 µM of selected compounds
Answer in %, number only, no unit symbol.

[[record]]
compound = "O=C(COc1ccc2c(c1)CCCC2)NN=c1scc(-c2cccc(Cl)c2Cl)n1-c1ccccc1 [Compound 4k]"
experimental_readout = "inhibition at 160 µM"
result_number = 15.2

[[record]]
compound = "O=C(COc1ccc2c(c1)CCCC2)N/N=c1\\scc(-c2ccc(F)cc2)n1-c1ccccc1 [Compound 4h]"
experimental_readout = "inhibition at 160 µM"
result_number = 49.9


Please find the next compound below.
Query: Give the observed inhibition at 160 µM of COc1ccc(-c2csc(=NNC(=O)COc3ccc4c(c3)CCCC4)n2C2CCCCC2)cc1 [Compound 4b] for UniProtKB P22303.
Reply: 11.1

----------
# Test system: A549 cells
# ASSAY_COMMENT: Annexin V-FITC/propidium iodide flow cytometry on A549
# Type: cell-based, human
# TEST_SETTINGS: A549 cell line, IC50 concentration
EXPERIMENTAL_READOUT: apoptosis (early + late apoptotic cell percentage) A549

Observe how each entry below is paired with its result.
[[record]]
molecule = "O=C(COc1ccc2c(c1)CCCC2)N/N=c1\\scc(-c2ccc(F)cc2)n1-c1ccccc1 [Compound 4h]"
result = "over 50%"

[[record]]
molecule = "COc1ccc(-c2csc(=NNC(=O)COc3ccc4c(c3)CCCC4)n2C2CCCCC2)cc1 [Compound 4b]"
result = "73.6%"

[[record]]
molecule = "N.N.[Cl][Pt][Cl] [Cisplatin, cisplatin, reference compound]"
result = "40.2%"

[[record]]
molecule = "O=C(COc1ccc2c(c1)CCCC2)NN=c1scc(-c2ccc(Br)cc2)n1-c1ccccc1 [Compound 4f]"
result = "over 41.5%"

[[record]]
molecule = "O=C(COc1ccc2c(c1)CCCC2)NN=c1scc(-c2ccc(Cl)cc2)n1-c1ccccc1 [Compound 4g]"
result = "over 41.5%"


Query: Retrieve apoptosis (early + late apoptotic cell percentage) A549 on A549 cells; query O=C(COc1ccc2c(c1)CCCC2)NN=c1scc(-c2ccc([N+](=O)[O-])cc2)n1-c1ccccc1 [Compound 4j]
Reply: over 41.5%

Query: Under A549 cells: report apoptosis (early + late apoptotic cell percentage) A549 of O=C(COc1ccc2c(c1)CCCC2)NN=c1scc(-c2ccccc2)n1C1CCCCC1 [Compound 4a] .
Reply: over 50%
